System: platelet aggregation
protocol-summary: Platelet aggregation assay, ADP and/or collagen (Example 45)
Type: in vivo, cynomolgus monkeys
particulars: day 78 (with ADP); escalating dose regimen
platelet aggregation strictly less than 10 Ohms = Fulfilled. Otherwise Not fulfilled.

**Q:** Please state whether platelet aggregation is below 10 Ohms for ISIS 417002: MOE gapmer, nucleobases 1275 to 1318 of SEQ ID NO: 1 (Table 8) (antisense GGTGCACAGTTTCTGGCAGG; MOE gapmer, wing and gap sizes not given here)
**A:** Not fulfilled

**Q:** Please state whether platelet aggregation is below 10 Ohms for ISIS 416858: MOE gapmer, nucleobases 1275 to 1318 of SEQ ID NO: 1 (Table 8) (antisense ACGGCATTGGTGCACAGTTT; MOE gapmer, wing and gap sizes not given here)
**A:** Fulfilled

**Q:** Please state whether platelet aggregation is below 10 Ohms for ISIS 416838: MOE gapmer, nucleobases 1018 to 1042 of SEQ ID NO: 1 (Table 6) (antisense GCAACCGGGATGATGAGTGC; MOE gapmer, wing and gap sizes not given here)
**A:** Not fulfilled

**Q:** Please state whether platelet aggregation is below 10 Ohms for ISIS 416850: MOE gapmer, nucleobases 1275 to 1318 of SEQ ID NO: 1 (Table 8) (antisense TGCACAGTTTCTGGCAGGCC; MOE gapmer, wing and gap sizes not given here)
**A:** Fulfilled

**Q:** Please state whether platelet aggregation is below 10 Ohms for ISIS 416864: MOE gapmer, nucleobases 1275 to 1318 of SEQ ID NO: 1 (Table 8) (antisense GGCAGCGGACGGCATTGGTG; MOE gapmer, wing and gap sizes not given here)
**A:** Not fulfilled
